Molecular target: T1, SNTB1, Q13884
T1 sequence (Q13884 107-205, limits assumed, looked up): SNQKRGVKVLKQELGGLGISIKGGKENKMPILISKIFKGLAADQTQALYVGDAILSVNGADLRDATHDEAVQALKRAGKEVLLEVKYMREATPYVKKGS
Test: holdup assay
Design: key: below the threshold = too weak to quantify, mostly under pKd 3.1 to 4
Conditions: plain residues with an end cap or a label only (N-terminal biotin on a linker: ado-ado)
Answer each item with its documented pKd.
Give bare numbers.

Worked examples follow.
TETASVCTKV [SLC23A1, Q9UHI7]; 4.17
FVHPILQSAV [PRKCA, P17252]; 4.32

Next up:
[Q] Could you tell me which pKd is on file for EEPEERHTEL [CES2, O00748] ?
[A] 4.92
